test system: BRCA2 Knockout DLD-1 cells; experiment: Inhibition of proliferation of BRCA2 Knockout DLD-1 cells (CellTiter-Glo); format: cell-based; details: Homo sapiens, about 144 hours incubation
Record form. Attribute: pIC50. Fill in for each entry.
Give bare numbers, as −log10 of the molar value.

Quick one: give me pIC50 for each item below, same order please.
1. [2H]C([2H])([2H])Nc1nccc2cc(N3CCN(Cc4cnc5cc(CC)c(=O)[nH]c5c4)CC3)cnc12
2. CCc1cc2ncc(CN3CCC(c4ccc(C(=O)NC)nc4)=C(F)C3)cc2[nH]c1=O
3. CNC(=O)c1ccc(C2=CCN(Cc3cnc4cc(C(F)(F)F)c(=O)[nH]c4c3)CC2)cn1
4. CCc1cc2ncc(CN3CC=C(c4ncc(C)n4C)CC3)cc2[nH]c1=O
5. CCc1cc2ncc(CN3CCN(c4cnc5c(NC)ncc(F)c5c4)CC3)cc2[nH]c1=O
6. CCc1cc2ncc(CN3CC=C(c4ccc(C(=O)NOC)nc4)CC3)cc2[nH]c1=O

// result
[8.77, 8.82, 8.29, 8.12, 8.08, 8.49]

So, CCc1cc2ncc(C(C)N3CC=C(c4ccc(C(=O)NC)nc4)CC3)cc2[nH]c1=O (stereo not shown) ? Its pIC50 was 8.44

----------
test: PK part of PK/PD study in MDA-MB-436 subcutaneous xenograft model: plasma and tumor concentration; type: in vivo, BALB/c nude mice; conditions: female, BALB/c nude, mouse, tumor tissue; single oral 0.3 mg/kg, 24 h; read-out: Mean tumor tissue concentration
Value type: concentration at 24 h (ng/g)
Answers are plain numbers, in ng/g.

So, CCc1cc2ncc(CN3CCN(c4ccc(C(=O)NC)nc4)CC3)cc2[nH]c1=O [AZD5305, reference compound] ? Its concentration at 24 h was 61

----------
biological target: PARP1 enzyme (Homo sapiens (Human))
Sequence (P09874 whole entry): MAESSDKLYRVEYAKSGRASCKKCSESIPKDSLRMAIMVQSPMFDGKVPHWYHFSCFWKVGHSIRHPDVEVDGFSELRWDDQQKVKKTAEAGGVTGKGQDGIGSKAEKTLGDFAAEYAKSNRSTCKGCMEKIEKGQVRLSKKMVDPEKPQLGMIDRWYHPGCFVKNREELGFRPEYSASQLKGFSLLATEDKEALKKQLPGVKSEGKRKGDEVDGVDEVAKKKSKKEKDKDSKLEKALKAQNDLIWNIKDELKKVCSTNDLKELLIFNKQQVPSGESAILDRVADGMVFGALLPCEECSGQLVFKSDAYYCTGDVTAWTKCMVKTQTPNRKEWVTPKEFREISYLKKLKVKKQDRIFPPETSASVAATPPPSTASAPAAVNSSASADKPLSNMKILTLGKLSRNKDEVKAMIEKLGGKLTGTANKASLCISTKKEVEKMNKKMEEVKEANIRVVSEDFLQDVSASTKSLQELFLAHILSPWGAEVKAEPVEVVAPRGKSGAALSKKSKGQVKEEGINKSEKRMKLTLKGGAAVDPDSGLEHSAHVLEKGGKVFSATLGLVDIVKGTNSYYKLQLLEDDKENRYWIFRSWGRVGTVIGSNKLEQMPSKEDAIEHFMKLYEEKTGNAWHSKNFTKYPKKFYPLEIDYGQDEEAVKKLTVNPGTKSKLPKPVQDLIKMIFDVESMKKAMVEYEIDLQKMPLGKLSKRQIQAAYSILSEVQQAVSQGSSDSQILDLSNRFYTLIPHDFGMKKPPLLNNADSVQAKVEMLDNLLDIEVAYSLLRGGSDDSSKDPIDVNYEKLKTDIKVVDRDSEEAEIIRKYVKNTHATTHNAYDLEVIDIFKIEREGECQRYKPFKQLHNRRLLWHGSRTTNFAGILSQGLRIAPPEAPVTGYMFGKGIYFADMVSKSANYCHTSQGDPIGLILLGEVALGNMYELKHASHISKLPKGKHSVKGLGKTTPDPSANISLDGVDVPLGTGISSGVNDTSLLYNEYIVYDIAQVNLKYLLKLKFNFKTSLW
Value type: pIC50
Answers are plain numbers, as −log10 of the molar value.

Consider the following illustrative entries.
Compound: CCc1cc2ncc(CN3CC=C(c4ccc(C(=O)N[C@@H]5CCOC5)nc4)CC3)cc2[nH]c1=O [Example 32]
Value: 9.00
//
Compound: CCc1cc2c(C#N)cc(CN3CC=C(c4ccc(C(=O)NC)nc4)CC3)cc2[nH]c1=O [Example 42]
Value: 8.89
//
Compound: CCC1Oc2ccc(CN3CC=C(c4ccc(C(=O)NC)nc4C)CC3)cc2NC1=O (centres unmarked) [Example 88]
Value: 8.30

Quick one: give me pIC50 for each item below, same order please.
1. CCc1cc2ncc(CN3CC=C(c4ccc(C(=O)NC)nc4C#N)CC3)cc2[nH]c1=O [Example 35]
2. CCc1cc2ncc(CN3CC=C(c4ccc(C(=O)NCC(F)(F)F)nc4)CC3)cc2[nH]c1=O [Example 83]

// result
1. 9.00
2. 8.85

----------
experiment: Bidirectional permeability through Caco-2 cell model; settings: human
Record form. Attribute: Papp B→A at 2 h, 10 μM. Fill in for each entry.
Give bare numbers, in ×10⁻⁶ cm/s.

Input smiles: CCc1cc2ncc(CN3CCC(c4ccc(C(=O)NC)nc4)CC3)cc2[nH]c1=O
Value: 13.5
--
Input smiles: CCc1cc2ncc(CN3CC=C(c4ccc(C(=O)NC)nc4F)CC3)cc2[nH]c1=O
Value: 15.6

Consider the additional molecule presented here.
So, `CCc1cc2ncc(CN3CCN(c4cnc5c(NC)nccc5c4)CC3)cc2[nH]c1=O` ? Its Papp B→A at 2 h, 10 μM was 24.1

All figures here come from patent US20240228490A1.
